Numbers sourced from patent US8518952B2.

Target: CHK1 (kinase domain) (Homo sapiens, UniProt O14757)
Sequence (O14757 9-265 limits assumed): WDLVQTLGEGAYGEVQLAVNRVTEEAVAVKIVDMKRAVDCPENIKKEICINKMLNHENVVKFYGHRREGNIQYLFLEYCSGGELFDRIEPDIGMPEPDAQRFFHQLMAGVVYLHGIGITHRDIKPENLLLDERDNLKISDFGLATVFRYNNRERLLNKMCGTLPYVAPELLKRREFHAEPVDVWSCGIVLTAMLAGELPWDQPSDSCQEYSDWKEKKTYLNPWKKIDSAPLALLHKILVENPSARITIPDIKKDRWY
pKi: −log10 of the molar value.
Mark not met for pKi values under 8, and met for everything at or above.

sample_smiles=Oc1ccn2c(-c3cncc(N[C@@H]4CCCNC4)n3)cnc2c1 label=met
sample_smiles=C[C@@H]1NCCC[C@H]1Nc1cncc(-c2cnc3cnccn23)n1 label="not met"
sample_smiles=C[C@@H]1CC[C@@H](Nc2cncc(-c3cnc4ccccn34)n2)CN1 label="not met"
sample_smiles=CC(C)OC[C@@H]1C[C@@H](Nc2cncc(-c3cnc4ccccn34)n2)CN1 label="not met"
sample_smiles=FC[C@@H]1C[C@@H](Nc2cncc(-c3cnn4cc(Cl)ccc34)n2)CN1 label=met
sample_smiles=CC(C)c1cn2c(-c3cncc(N[C@@H]4CCCN[C@@H]4C)n3)cnc2s1 label=met
sample_smiles=c1ccn2c(-c3cncc(N[C@@H]4CCCNC4)n3)cnc2c1 label=met
